# test method notes: Phase 1 hepatic impairment study, plasma PK after single oral 20 mg tablet
# Type: in vivo, human
# experimental setup: both sexes, human, plasma, oral, 20 mg, normal hepatic function; read-out: AUC(0-t), Mean ± SD
measurement kind: AUC(0-t) (ng·h/mL)

# smiles data, measurement kind, obs value
records = [
    ("N#Cc1cccc(-c2ccc3ncc(-c4cc(F)cc(F)c4)c(N4CCC(N)CC4)c3c2)c1O", "AUC(0-t)", 1780),
]

###

# test method notes: Phase 1 hepatic impairment study, plasma PK after single oral 20 mg tablet
# Format: in vivo, human
# experimental setup: both sexes, human, plasma, oral, 20 mg, severe hepatic impairment; read-out: Cmax, Mean ± SD
measurement kind: Cmax (ng/mL)

# smiles data, obs value
data = [
    ("N#Cc1cccc(-c2ccc3ncc(-c4cc(F)cc(F)c4)c(N4CCC(N)CC4)c3c2)c1O", 110),
]

Value source: patent US12208092B2
